- assayed.target: SHP2-C SH2
- procedure.details: SH2 binding enrichment of the phosphorylated peptide, bacterial display (enrichment ratio); higher = better substrate or ligand; peptides without Tyr show the background
A collection of sequences and their measured SH2 binding enrichment
experimental.readout: SH2 binding enrichment

| record.sequence | experimental.readout | recorded.measurement |
| --- | --- | --- |
| SVTCTCSPALN [TP53_Y126_Y126C] | SH2 binding enrichment | 0.508 |
| IQKWEYVPLGP [FAH_Y244] | SH2 binding enrichment | 0.558 |
| QTEAQYRFIYM [PTPN11_Y511] | SH2 binding enrichment | 0.744 |
| CTTIHYNYMWN [TP53_Y234_C238W] | SH2 binding enrichment | 1.18 |
| KEKLCYVALDF [ACTA1_Y220] | SH2 binding enrichment | 1.04 |
| DRLASYLDKLR [KRT12_Y139_V143L] | SH2 binding enrichment | 0.582 |
| EQKKFYNAVKK [SCN5A_Y1495_M1498V_YF] | SH2 binding enrichment | 0.646 |
| FTFDPYSEEDP [IL2RB_Y387_YF] | SH2 binding enrichment | 0.823 |
| KFVKMYDNHQL [MYO9A_Y203_YF] | SH2 binding enrichment | 0.502 |
| DKTGEYPVPLI [ACADM_Y73] | SH2 binding enrichment | 0.697 |
| DRQASYLDKVR [KRT16_Y131_L128Q] | SH2 binding enrichment | 0.614 |
| FGISGYVVDSV [MAP2K3_Y214_L215V] | SH2 binding enrichment | 0.605 |
| SGIYQYIIAKF [FOXL2_Y83] | SH2 binding enrichment | 1.05 |
| TKLKDYYIFNK [CCDC42_Y149_A144T] | SH2 binding enrichment | 1.1 |

* * *

- assayed.target: c-Src SH2
- procedure.details: SH2 binding enrichment of the phosphorylated peptide, bacterial display (enrichment ratio); higher = better substrate or ligand; peptides without Tyr show the background
experimental.readout: SH2 binding enrichment

| record.sequence | experimental.readout | recorded.measurement |
| --- | --- | --- |
| LMVFEYMRHGD [NTRK1_Y591] | SH2 binding enrichment | 1.23 |
| RLSELYLRRNP [CFAP410_Y68_R73P] | SH2 binding enrichment | 0.352 |
| ESDYTYSSSYE [SRPK2_Y427] | SH2 binding enrichment | 1.15 |
| GDPTEYFITAI [IGSF22_Y501_S503I_YF] | SH2 binding enrichment | 0.499 |
| MVTSGYKAKMI [EFR3A_Y447_T451M] | SH2 binding enrichment | 0.539 |
| KMKGDYYRYLA [YWHAG_Y130] | SH2 binding enrichment | 1.53 |
| FDEFRYRSVIK [CFTR_Y517_YF] | SH2 binding enrichment | 0.444 |
| VEGIGYDFIPT [CBS_Y308] | SH2 binding enrichment | 7.71 |
| LLQEWYMIISR [HUWE1_Y4066_R4063Q] | SH2 binding enrichment | 0.623 |
| LFMGDYVGRGY [PPP2CA_Y86_D88G] | SH2 binding enrichment | 0.536 |
| SECCKYKTDNP [OSMR_Y689_I691T] | SH2 binding enrichment | 0.48 |
| LEVPLYKNGVK [CPS1_Y1069_A1065E] | SH2 binding enrichment | 0.472 |
| FCVDCYKNFVA [FHL1_Y213_YF] | SH2 binding enrichment | 0.946 |
| NFRRGYHLQVL [CD200R1L_Y138_H135R] | SH2 binding enrichment | 0.753 |

* * *

- assayed.target: EPHB2 (UniProt P29323)
- Sequence (P29323 whole entry, looked up): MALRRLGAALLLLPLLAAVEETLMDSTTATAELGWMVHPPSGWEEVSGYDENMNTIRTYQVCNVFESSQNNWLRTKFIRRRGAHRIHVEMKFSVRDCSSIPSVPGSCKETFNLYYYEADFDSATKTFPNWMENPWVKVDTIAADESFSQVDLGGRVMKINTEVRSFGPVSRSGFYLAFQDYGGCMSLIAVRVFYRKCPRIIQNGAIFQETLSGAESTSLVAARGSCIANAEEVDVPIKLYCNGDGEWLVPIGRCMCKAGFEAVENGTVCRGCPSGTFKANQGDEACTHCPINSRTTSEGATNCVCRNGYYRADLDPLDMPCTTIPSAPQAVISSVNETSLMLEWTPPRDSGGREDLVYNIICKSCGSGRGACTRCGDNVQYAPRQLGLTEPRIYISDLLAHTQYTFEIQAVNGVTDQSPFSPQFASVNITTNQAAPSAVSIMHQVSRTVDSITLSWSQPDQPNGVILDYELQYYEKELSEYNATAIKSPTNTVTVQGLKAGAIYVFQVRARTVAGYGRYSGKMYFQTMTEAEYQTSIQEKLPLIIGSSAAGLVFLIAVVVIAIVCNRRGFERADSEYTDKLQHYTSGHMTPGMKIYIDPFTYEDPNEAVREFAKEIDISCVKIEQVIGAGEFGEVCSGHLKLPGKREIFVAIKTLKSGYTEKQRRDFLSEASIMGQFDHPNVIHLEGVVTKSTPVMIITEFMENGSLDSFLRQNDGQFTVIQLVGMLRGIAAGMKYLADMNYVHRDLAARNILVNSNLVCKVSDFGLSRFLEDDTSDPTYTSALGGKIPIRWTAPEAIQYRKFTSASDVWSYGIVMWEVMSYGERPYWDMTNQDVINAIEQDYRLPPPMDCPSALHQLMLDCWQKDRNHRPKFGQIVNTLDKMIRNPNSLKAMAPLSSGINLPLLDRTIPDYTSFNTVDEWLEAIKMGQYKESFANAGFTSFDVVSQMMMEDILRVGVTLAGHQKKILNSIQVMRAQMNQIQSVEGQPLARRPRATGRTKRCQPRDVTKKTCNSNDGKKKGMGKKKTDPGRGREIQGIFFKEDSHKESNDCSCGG
- procedure.details: phosphorylation enrichment, bacterial display (enrichment ratio); higher = better substrate or ligand; peptides without Tyr show the background
Lab note: class by phosphorylation enrichment, see bin 0 = under 0.5, bin 1 = from 0.5 up to 0.7, bin 2 = 0.7 and over

| record.sequence | class.label |
| --- | --- |
| KVVQEYERVII [NPHS2_Y131] | bin 2 |
| RPDSPYSRLHD [DOK2_Y271_P274L] | bin 0 |
| RFLRGYRQDAY [HLA-A_Y137] | bin 0 |
| GQKVAYGGTED [ALDH3A1_Y305_G309E] | bin 0 |
| VGGRIYIDDGL [PKLR_Y218] | bin 0 |
| HKLSFYEFDFE [BTK_Y40_YF] | bin 2 |
| CSDPSYVKQME [CDC5L_Y464_Y459C] | bin 1 |
| CSEEMYRLMLQ [RET_Y981] | bin 1 |
| GRIHSYRGHLW [VHL_Y112_R107G] | bin 0 |
| SGPRCYTIAAL [TTR_Y125_R124C] | bin 0 |
| HQIQSYTCEID [DES_Y331] | bin 2 |

* * *

- assayed.target: Hck (UniProt P08631)
- Sequence (P08631 whole entry, looked up): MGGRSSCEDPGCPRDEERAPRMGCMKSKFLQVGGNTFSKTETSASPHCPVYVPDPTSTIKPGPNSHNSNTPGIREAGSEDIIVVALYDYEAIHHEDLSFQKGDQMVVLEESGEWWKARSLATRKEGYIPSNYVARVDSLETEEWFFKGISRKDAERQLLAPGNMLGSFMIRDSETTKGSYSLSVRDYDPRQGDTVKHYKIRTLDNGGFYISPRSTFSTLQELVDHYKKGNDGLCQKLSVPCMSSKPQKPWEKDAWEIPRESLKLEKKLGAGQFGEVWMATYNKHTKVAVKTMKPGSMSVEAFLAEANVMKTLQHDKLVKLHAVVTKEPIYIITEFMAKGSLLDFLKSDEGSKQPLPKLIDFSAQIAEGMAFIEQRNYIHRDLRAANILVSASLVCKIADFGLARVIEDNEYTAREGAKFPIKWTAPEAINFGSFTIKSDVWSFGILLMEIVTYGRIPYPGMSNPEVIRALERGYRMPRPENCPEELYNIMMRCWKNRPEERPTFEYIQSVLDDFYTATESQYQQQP
- procedure.details: phosphorylation enrichment, bacterial display (enrichment ratio); higher = better substrate or ligand; peptides without Tyr show the background
phosphorylation enrichment of 0.6 or higher: rule met. Under 0.6: rule not met.

| record.sequence | assayed.target | class.label |
| --- | --- | --- |
| SFSGEYGGGGG [ZG16_Y30_YF] | Hck (UniProt P08631) | rule not met |
| TDHLQYFDSNK [ARAP1_Y359_R358Q] | Hck (UniProt P08631) | rule met |
| ANSSFHSTRSA [NUMA1_Y1836_Y1836H] | Hck (UniProt P08631) | rule not met |
| HKLSFYEFDFE [BTK_Y40_YF] | Hck (UniProt P08631) | rule met |
| KKGMIYGGGGG [PSME1_Y249_T244K] | Hck (UniProt P08631) | rule not met |
| EDSEYYKAFEE [CASQ2_Y179] | Hck (UniProt P08631) | rule not met |
| VREIRYQGGNR [VWF_Y1570] | Hck (UniProt P08631) | rule not met |
| DTMQTYNGNDE [TSPAN7_Y131_A127T] | Hck (UniProt P08631) | rule met |
| GSSSSCGQHGS [HRNR_Y517_Y517C] | Hck (UniProt P08631) | rule not met |
| VNFDYYTVNLG [GFPT1_Y367_D366Y] | Hck (UniProt P08631) | rule met |
| NHYKIYNPCAE [PTEN_Y68_L70P] | Hck (UniProt P08631) | rule not met |
| GGRKGYGDFSR [RECQL5_Y478] | Hck (UniProt P08631) | rule not met |
| GGGGGYNCSSG [FUS_Y232_R234C] | Hck (UniProt P08631) | rule not met |
| KGEDFYCVTFH [FHL1_Y149_C153Y_YF] | Hck (UniProt P08631) | rule met |
| GHEFIYVDRMQ [PDGFRB_Y581_P584R_YF] | Hck (UniProt P08631) | rule met |
| GRQVIYTENER [GPR143_Y231_G229V] | Hck (UniProt P08631) | rule not met |
| GLDSSYLLRDS [SH2D1A_Y29_G27S] | Hck (UniProt P08631) | rule not met |
| LTYHMYADPNF [SOS1_Y618] | Hck (UniProt P08631) | rule met |
| RAEAQYLLVSN [LRIG1_Y1054] | Hck (UniProt P08631) | rule not met |
| EHFSFYGMKAV [SLC15A2_Y61_R57H_YF] | Hck (UniProt P08631) | rule met |
| GVFSRHFTTFD [CLCA1_Y661_Y661H_YF] | Hck (UniProt P08631) | rule met |
| SGSIHYSRVPR [GLB1_Y57] | Hck (UniProt P08631) | rule not met |
| REGAKYVSHDA [ASS1_Y113_G117D] | Hck (UniProt P08631) | rule not met |
| CTTIHYFFMCN [TP53_Y234_N235Y_YF] | Hck (UniProt P08631) | rule not met |
| IMWDSYTTNKV [GNB3_Y85_V81M] | Hck (UniProt P08631) | rule not met |
| RGGWAYVLHPT [TRMT61A_Y67_V66A] | Hck (UniProt P08631) | rule not met |
| PEVSGYCHYAD [TG_Y234_C237Y] | Hck (UniProt P08631) | rule met |

* * *

As shown below, each of these sequences has a reported phosphorylation enrichment value.
- assayed.target: FGFR3 (UniProt P22607)
- Sequence (P22607 whole entry, looked up): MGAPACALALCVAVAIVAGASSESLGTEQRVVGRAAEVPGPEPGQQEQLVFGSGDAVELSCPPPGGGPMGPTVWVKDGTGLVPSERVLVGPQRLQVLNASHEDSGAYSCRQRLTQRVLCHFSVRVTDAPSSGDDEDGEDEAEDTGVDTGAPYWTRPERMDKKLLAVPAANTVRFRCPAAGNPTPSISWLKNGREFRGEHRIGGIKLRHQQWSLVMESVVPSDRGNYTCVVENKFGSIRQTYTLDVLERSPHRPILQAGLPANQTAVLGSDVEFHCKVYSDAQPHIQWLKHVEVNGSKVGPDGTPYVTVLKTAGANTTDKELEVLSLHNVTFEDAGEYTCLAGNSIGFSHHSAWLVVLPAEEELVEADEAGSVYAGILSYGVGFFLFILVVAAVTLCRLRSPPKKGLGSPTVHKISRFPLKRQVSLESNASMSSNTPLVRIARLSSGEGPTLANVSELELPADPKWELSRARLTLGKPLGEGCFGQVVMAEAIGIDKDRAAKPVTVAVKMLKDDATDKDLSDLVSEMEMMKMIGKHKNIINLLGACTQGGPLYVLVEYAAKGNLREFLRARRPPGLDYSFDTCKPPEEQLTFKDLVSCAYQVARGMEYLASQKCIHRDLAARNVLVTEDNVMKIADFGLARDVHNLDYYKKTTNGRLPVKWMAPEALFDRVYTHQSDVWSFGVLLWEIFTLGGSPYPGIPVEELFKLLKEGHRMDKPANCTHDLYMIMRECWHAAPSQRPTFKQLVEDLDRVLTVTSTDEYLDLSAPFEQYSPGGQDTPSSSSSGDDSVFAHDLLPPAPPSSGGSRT
- procedure.details: phosphorylation enrichment, bacterial display (enrichment ratio); higher = better substrate or ligand; peptides without Tyr show the background

| record.sequence | phosphorylation enrichment |
| --- | --- |
| LREKVYVSLEA [RXRA_Y397_A398V] | 0.737 |
| LGIDRYHAIVF [NPSR1_Y147_S143G_YF] | 1.37 |
| HKLSFYEFDFE [BTK_Y40_YF] | 1.36 |
| ELANLYHHVCM [BICD2_Y538] | 1.49 |
| IIQRAYRGHLL [SCN1A_Y1926_R1928G] | 0.628 |
| IAAEFYDNLPH [DEGS1_Y284_YF] | 0.682 |
| YGGLRYGYGGL [KRTAP20-2_Y13_V17G] | 0.536 |
